assay-remarks: in vitro
test-parameters: monkey, Vero 76 cells
Description: Selectivity index, ratio of CC50 for african green monkey Vero 76 cells to MIC for Mycobacterium tuberculosis H37Rv
Task for the reader: assign each of the following molecules its reported selectivity ratio.
One number for each entry.

Below, 2 molecules whose answers are already recorded.
# chemical-smiles, selectivity ratio
rows = [
    ("Clc1ccc(Nc2cc3nc4ccccc4n(-c4ccc(Cl)cc4)c-3c/c2=N/CC[C@H]2CCCN3CCCC[C@H]23)cc1", 11.3),
    ("Clc1ccc(Nc2cc3nc4ccccc4n(-c4ccc(Cl)cc4)c-3c/c2=N/CC[C@@H]2CCCN3CCCC[C@H]23)cc1", 10.7),
]

Read the next record carefully.
*Q* Report measured selectivity ratio; entry is c1ccc(Nc2cc3nc4ccccc4n(-c4ccccc4)c-3c/c2=N/CCC[C@H]2CCCN3CCCC[C@H]23)cc1
*A* 1.3

----------
Task for the reader: assign each of the following compounds its reported selectivity ratio.
assay-remarks: in vitro
test-parameters: human, HMEC1 cells
Description: Selectivity index, ratio of CC50 for human HMEC1 cells to MIC for Mycobacterium tuberculosis H37Rv
Numbers only.

Consider the following items and state reported selectivity ratio for each.
1. Clc1ccc(Nc2cc3nc4ccccc4n(-c4ccc(Cl)cc4)c-3c/c2=N/CC[C@H]2CCCN3CCCC[C@H]23)cc1
2. Clc1ccc(Nc2cc3nc4ccccc4n(-c4ccc(Cl)cc4)c-3c/c2=N/CC[C@@H]2CCCN3CCCC[C@H]23)cc1
3. c1ccc(Nc2cc3nc4ccccc4n(-c4ccccc4)c-3c/c2=N/CCC23CCCN2CCC3)cc1
4. Cc1ccc(Nc2cc3nc4ccccc4n(-c4ccc(C)cc4)c-3c/c2=N/C[C@@H]2CCCN3CCCC[C@H]23)cc1

*A*
1: 2.74; 2: 2.98; 3: 3.64; 4: 0.4

----------
Tested on: Mycobacterium tuberculosis
assay-remarks: microbe, parasite or virus in culture
test-parameters: isolate 439/11, 168 h
Description: Antitubercular activity against Mycobacterium tuberculosis isolate 439/11 after 7 days by REMA resazurin microtiter assay
reported-metric: log10 of MIC (log10 of the value in µM)
Hello, just confirming the data are log10 of MIC with units of µM.

Below, 4 compounds whose answers are already recorded.
# compound, reported-metric, quantitative-result
records = [
    ("c1ccc(Nc2cc3nc4ccccc4n(-c4ccccc4)c-3c/c2=N/CCC23CCCN2CCC3)cc1", "log10 of MIC", -0.06),
    ("Clc1ccc(Nc2cc3nc4ccccc4n(-c4ccc(Cl)cc4)c-3c/c2=N/C[C@@H]2CCCN3CCCC[C@H]23)cc1", "log10 of MIC", -0.07),
    ("Clc1ccc(Nc2cc3nc4ccccc4n(-c4ccc(Cl)cc4)c-3c/c2=N/CC[C@H]2CCCN3CCCC[C@H]23)cc1", "log10 of MIC", -0.08),
    ("Cc1ccc(Nc2cc3nc4ccccc4n(-c4ccc(C)cc4)c-3c/c2=N/C[C@@H]2CCCN3CCCC[C@H]23)cc1.Cl", "log10 of MIC", 0.51),
]

Read the next record carefully.
*Q* Report measured log10 of MIC; entry is CO[C@H]1/C=C/O[C@@]2(C)Oc3c(C)c(O)c4c(O)c(c(/C=N/N5CCN(C)CC5)c(O)c4c3C2=O)NC(=O)/C(C)=C\C=C\[C@H](C)[C@H](O)[C@@H](C)[C@@H](O)[C@@H](C)[C@H](OC(C)=O)[C@@H]1C [RIFAMPIN]
*A* -1.10

----------
assay-remarks: in vitro
test-parameters: human, MT4 cells
Description: Selectivity index, ratio of CC50 for human MT4 cells to MIC for Mycobacterium tuberculosis H37Rv
reported-metric: selectivity ratio
Answers are plain numbers.

Below, 3 compounds whose answers are already recorded.
# chemical-smiles, reported-metric, quantitative-result
measured = [
    ("c1ccc(Nc2cc3nc4ccccc4n(-c4ccccc4)c-3c/c2=N/CCC[C@@H]2CCCN3CCCC[C@H]23)cc1", "selectivity ratio", 0.22),
    ("Clc1ccc(Nc2cc3nc4ccccc4n(-c4ccc(Cl)cc4)c-3c/c2=N/CC[C@@H]2CCCN3CCCC[C@H]23)cc1", "selectivity ratio", 1.43),
    ("CC(C)/N=c1\\cc2n(-c3ccc(Cl)cc3)c3ccccc3nc-2cc1Nc1ccc(Cl)cc1", "selectivity ratio", 6.41),
]

*Q* Report measured selectivity ratio; entry is Clc1ccc(Nc2cc3nc4ccccc4n(-c4ccc(Cl)cc4)c-3c/c2=N/CCC[C@H]2CCCN3CCCC[C@H]23)cc1
*A* 1.83
